Molecular target: T1, Rat ASGR-1 (rat, UniProt P02706 1-284)
T1 construct: Expressed on HEK 293 cells or as membrane prep on beads; cDNA GenBank NM_012503
T1 sequence: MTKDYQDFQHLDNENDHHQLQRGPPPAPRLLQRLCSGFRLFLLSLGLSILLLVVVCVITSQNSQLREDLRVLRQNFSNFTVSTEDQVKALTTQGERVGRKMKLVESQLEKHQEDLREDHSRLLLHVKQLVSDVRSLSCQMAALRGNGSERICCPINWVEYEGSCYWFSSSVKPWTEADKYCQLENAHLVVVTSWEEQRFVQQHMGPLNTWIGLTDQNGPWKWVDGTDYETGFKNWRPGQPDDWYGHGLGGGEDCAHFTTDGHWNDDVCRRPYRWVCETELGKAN
Experiment: FACS on transfected HEK 293 cells or membrane preps on beads; Y = signal at least 2x irrelevant IgG

{"columns": ["binder", "binding result"],
 "data": [
  ["194A4 (antibody, V domains shown, Tested as hybridoma supernatant at normalized concentration) VH: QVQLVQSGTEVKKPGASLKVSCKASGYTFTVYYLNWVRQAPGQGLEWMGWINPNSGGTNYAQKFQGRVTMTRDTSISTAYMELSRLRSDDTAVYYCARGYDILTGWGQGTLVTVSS VL: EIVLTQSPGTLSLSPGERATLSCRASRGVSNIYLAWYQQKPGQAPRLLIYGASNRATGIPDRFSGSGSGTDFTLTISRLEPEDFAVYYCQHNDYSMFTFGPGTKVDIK", "binds"],
  ["4A2 (antibody, V domains shown, Tested as hybridoma supernatant at normalized concentration) VH: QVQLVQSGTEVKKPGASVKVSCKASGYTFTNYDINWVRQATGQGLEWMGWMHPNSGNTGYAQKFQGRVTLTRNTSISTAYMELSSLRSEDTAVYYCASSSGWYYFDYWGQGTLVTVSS VL: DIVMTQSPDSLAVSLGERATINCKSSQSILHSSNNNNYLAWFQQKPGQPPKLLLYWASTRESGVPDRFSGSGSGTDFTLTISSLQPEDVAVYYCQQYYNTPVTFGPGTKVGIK", "binds"]
]}
